protocolText: Dynamic solubility experiment at 37°C (water, SGF, FaSSIF, FeSSIF)
conditionContext: pH value of the filtrate, FaSSIF, 1 hour
Counter-ions that a name gives are not always drawn.
Kind request: treat 6 as inclusive, so pH at 6 or higher is 1.0, anything lower is 0.0.

Consider the worked cases shown below.
[ask] Textbook exercise: given the entry Cc1cc(OCCN2C[C@H]3COC[C@H]3C2)ccc1-c1ccc(CC(=O)NCc2ccccc2)nc1 [Crystal form B of oxalate salt] , state whether its pH is greater than or equal to 6.
[reply] 0.0

[ask] Is the recorded value of pH equal to or greater than 6 for this compound? Cc1cc(OCCN2C[C@H]3COC[C@H]3C2)ccc1-c1ccc(CC(=O)NCc2ccccc2)nc1 [Crystal form A of fumarate salt]
[reply] 0.0

Now for another entry.
[ask] // inclusive: pH at least 6? input: Cc1cc(OCCN2C[C@H]3COC[C@H]3C2)ccc1-c1ccc(CC(=O)NCc2ccccc2)nc1 [Free form crystal form A]
[reply] 1.0
